test system: RPMI-8226 leukemia; test: NCI tumour cell line growth inhibition, 48 h; in the data active = GI50 below about 0.43 µM; inactive = the rest
Classes used: y for active, n for inactive

>  <compound>
C[C@]12CC[C@H]3[C@@H](CCC4=CC(=O)CC[C@@H]43)[C@@H]1CC[C@@H]2OC(=O)N(CCCl)N=O

>  <labelValue>
n

$$$$
>  <compound>
Cc1ccc2[nH]c(C(=O)NN3C(=O)CSC34CCCCC4C)c(-c3ccccc3)c2c1 (stereo not given)

>  <labelValue>
n

$$$$
>  <compound>
CCCN(Cc1ccc(F)cc1)c1ccc(CO)c(Cl)c1

>  <labelValue>
n

$$$$
>  <compound>
Fc1ccc2[nH]cc(Cc3c[nH]c4ccc(F)cc34)c2c1

>  <labelValue>
n

$$$$
>  <compound>
COc1ccc(C(=O)/C=C/c2ccc(Cl)cc2)cc1S(=O)(=O)Nc1c(N)nc(SC)[nH]c1=O

>  <labelValue>
n

$$$$
>  <compound>
c1ccc2[nH]c(-c3ccc(N4CCN(c5ccc(-c6nc7ccccc7[nH]6)cc5)CC4)cc3)nc2c1

>  <labelValue>
n

$$$$
>  <compound>
CCc1c(C)[nH]c(/C=C2\N=C(c3ccc[nH]3)C=C2OC)c1C

>  <labelValue>
y

$$$$
>  <compound>
Cc1cc(N2CCCCC2)nc(N(CCNc2ccnc3cc(Cl)ccc23)Cc2ccco2)n1

>  <labelValue>
n

$$$$
>  <compound>
CN(C)CCNC(=O)c1cccn2c(=O)c3cc4ccccc4cc3nc12

>  <labelValue>
y

$$$$
>  <compound>
C=CCC(N[C@H](CO)C(C)C)c1cn(C(=O)OCC)c2ccccc12 (stereo not given in full)

>  <labelValue>
n

$$$$
